meta.source: ChEMBL document CHEMBL1201862

- System: Malme-3M
- TEST NAME: NCI tumour cell line growth inhibition, 48 h
Calls of active or inactive are those of the source. Rule as the data show it: active = GI50 up to about 1.1 µM and inactive = higher.
Field: GI50. Provide a value for each of the compounds that follow.

# GI50 of CS(=O)(=O)Sc1ccc(Cl)cc1 = 11.6 µM (inactive)

# GI50 of CCOC(=O)COc1ccc(/C=C/C(=O)c2ccc(OC)cc2)cc1 = 28.2 µM (inactive)

# GI50 of COC(=O)C12CCC(C(=O)OC)(Cc3c(c4ccccc4n3S(=O)(=O)c3ccccc3)C1)C2=O (stereo not drawn) = 36.1 µM (inactive)

# GI50 of CC(=O)O[C@H]1CC[C@@]2(C)C(=CC[C@@H]3[C@@H]2CC[C@]2(C)c4c(cc(C#N)c(=N)n4C(C)=O)C[C@@H]32)C1 = 17.2 µM (inactive)

# GI50 of N#C/C(=C\c1cc(O)ccc1O)C(N)=O = 74 µM (inactive)

# GI50 of N/C(=N\NC(=O)c1nc2ccccc2s1)c1ccccn1 = 30 µM (inactive)

# GI50 of CCOC(=O)NC(=O)c1cn(CCN2CCN(C(=O)CCCCCCCCCCC(=O)N3CCN(CCn4cc(C(=O)NC(=O)OCC)c(=O)[nH]c4=O)CC3)CC2)c(=O)[nH]c1=O = > 100 µM (inactive)

# GI50 of Cn1c([N+](=O)[O-])cnc1CN1CCN(CCO)CC1 = > 100 µM (inactive)

# GI50 of Cc1c(C(=O)C/C(=N/NC(=O)c2ccccc2)C(=O)Nc2ccc(Cl)cc2)[n+]([O-])c2ccccc2[n+]1[O-] = > 100 µM (inactive)

# GI50 of COc1cc(=O)n2c3ccccc3n(C)c2c1C#N = > 100 µM (inactive)

# GI50 of O=C1C=C2CC[C@H]3[C@@H]4CC[C@H](OC(=O)c5cccc6cc7ccccc7nc56)[C@H]4CC[C@@H]3[C@H]2CC1 = > 100 µM (inactive)

# GI50 of CCCc1c(-c2ccccc2)[nH]c2ccccc2c1=O = 33 µM (inactive)

# GI50 of CCOC(OCC)C(CC)[Se]c1ccccc1[N+](=O)[O-] (stereo not drawn) = 7.28 µM (inactive)

# GI50 of Clc1ccc(C2=NN=C3C(c4ccccc4)=Nc4ccccc4N3C2)cc1 = 5.45 µM (inactive)

# GI50 of Cc1ccc(S(=O)(=O)ON2C(=O)c3c(N)c(C#N)c(-c4ccccc4)c(-c4ccccc4)c3C2=O)cc1 = 21.5 µM (inactive)

# GI50 of O=C(CCCCCCCCC(=O)OCCCn1cc(C(=O)NC(=O)OCc2ccccc2)c(=O)[nH]c1=O)OCCCn1cc(C(=O)NC(=O)OCc2ccccc2)c(=O)[nH]c1=O = > 100 µM (inactive)

# GI50 of CC(C)(C)c1cc(OCc2nnc3sc(-c4ccc(Cl)cc4)nn23)c(Cl)cc1OCc1nnc2sc(-c3ccc(Cl)cc3)nn12 = 2.93 µM (inactive)

# GI50 of CCOP(=O)(OCC)C(C(=O)OC)C(=O)C(=O)Nc1ccc(Cl)cc1Cl (stereo not drawn) = > 100 µM (inactive)

# GI50 of CC(C)S(=O)(=O)n1c(N)nc2ccc(/C(=N/O)c3ccccc3)cc21 [ENVIROXIME] = 45.4 µM (inactive)

# GI50 of Cc1ccc(/C=N/Nc2cnccn2)s1 = > 100 µM (inactive)

# GI50 of CC(C)[C@H]1NC(=O)[C@H]2N=C(O[C@@H]2C)[C@@H]2CCCN2C(=O)[C@H](Cc2ccccc2)NC(=O)[C@@H]2COC(=N2)[C@@H](Cc2ccccc2)NC(=O)[C@@H]2COC1=N2 = > 100 µM (inactive)

# GI50 of COC(=O)C1CC2(CC3=C1CCCC3)OCCO2 (stereo not drawn) = > 100 µM (inactive)

# GI50 of COc1ccc(O[C@H](COCc2ccccc2)C[C@@H]2COC(C)(C)O2)cc1 = > 100 µM (inactive)

# GI50 of N#CC1(N2CCCC2)CCC2(CC1)OCCO2 = > 100 µM (inactive)

# GI50 of Cc1cccc2c(=O)c3cccc([C@H](C)C(=O)O)c3oc12 = > 100 µM (inactive)

# GI50 of COc1ccc(N2C(=O)CC(Cl)C2=O)cc1 (stereo not drawn) = 17.5 µM (inactive)

# GI50 of CCCCc1c2c(nc3c1CCC/C3=C\c1ccccc1)C(=O)C(CN(C)C)CC2 (stereo not drawn) = 22.1 µM (inactive)

# GI50 of N#Cc1c2c(c(N=P(c3ccccc3)(c3ccccc3)c3ccccc3)n3c1nc1ccccc13)CCCC2 = 36 µM (inactive)
